# System: récepteurs surrénaliens de l'angiotensine II
# assay: Displacement of radioligand [125I]-SIAII specifically bound to rat adrenal angiotensin II receptors
# Assay type: binding
# reported-conditions: competitor 1E-5M, rat adrenal homogenate, 60 min at 25°C, 10 µM
observable: % de déplacement du ligand marqué (%)
# unit: % | format: bare number

A selection of reference data follows.
compound="CCCc1nc(C)n(CC(=O)O)c(=O)c1Cc1ccc(NC(=O)c2c(Cl)ccc(Cl)c2C(=O)O)cc1 [Exemple 14]" assay_system="récepteurs surrénaliens de l'angiotensine II" observable="% de déplacement du ligand marqué" unit_annotation=% observed_result=81
compound="CCCCc1nc(C)nc(N)c1Cc1ccc(NC(=O)c2ccccc2S(=O)(=O)O)cc1 [Exemple 57]" assay_system="récepteurs surrénaliens de l'angiotensine II" observable="% de déplacement du ligand marqué" unit_annotation=% observed_result=80

As a next step, examine the compound that follows.
récepteurs surrénaliens de l'angiotensine II data for CCCc1nc(C)nc(N2CCN(c3ccccc3OC)CC2)c1Cc1ccc(NC(=O)c2ccccc2S(=O)(=O)O)cc1 [Exemple 58] ; its % de déplacement du ligand marqué: 78
